Reference source for all entries: patent US20120135923A1

Target: T1, hMC4-R (human, UniProt P32245 1-332)
T1 construct: whole, on cells; Assayed as membranes of CHO-K1 cells expressing the receptor; also called hMC-R receptor subtype 4; melanocortin-4 (MC4-R)
T1 sequence (P32245 whole entry): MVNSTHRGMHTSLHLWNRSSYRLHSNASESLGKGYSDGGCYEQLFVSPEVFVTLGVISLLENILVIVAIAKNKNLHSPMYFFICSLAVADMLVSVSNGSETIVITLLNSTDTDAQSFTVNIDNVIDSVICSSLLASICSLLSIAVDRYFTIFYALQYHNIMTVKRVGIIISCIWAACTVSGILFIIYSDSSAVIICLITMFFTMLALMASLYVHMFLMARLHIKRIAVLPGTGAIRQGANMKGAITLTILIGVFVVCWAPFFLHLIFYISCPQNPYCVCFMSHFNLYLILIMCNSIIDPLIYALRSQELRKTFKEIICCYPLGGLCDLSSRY
Assay: competition with [125I]-NDP-α-MSH, CHO-K1 membranes
Bridge positions count the residues as written; N and C are the ends. Square brackets hold non-standard residues; d marks the D form. 2Nal = N[C@@H](Cc1ccc2ccccc2c1)C(=O)O; dChg = N[C@@H](C(=O)O)C1CCCCC1; Pen = CC(C)(S)[C@H](N)C(=O)O; Nle = CCCC[C@H](N)C(=O)O; Ava = NCCCCC(=O)O; GABA = NCCCC(=O)O
reported_property: pKi
The quantity pKi is defined as the negative base-10 logarithm of the molar concentration.

[[record]]
binder = "Ac-[2Nal]CH[dF]RW[GABA]C-NH2 (disulfide 2-8) [Ac-2-Nal-c(Cys-His-D-Phe-Arg-Trp-Gaba-Cys)-NH2]"
value_reported = 8.53

[[record]]
binder = "Ac-[dChg]DH[dF]RW[GABA]K-NH2 (lactam 2-8) [Ac-D-Chg-c(Asp-His-D-Phe-Arg-Trp-Gaba-Lys)-NH2]"
value_reported = 8.52

[[record]]
binder = "Ac-LCH[dF]RW[GABA]C-NH2 (disulfide 2-8) [Ac-Leu-c(Cys-His-D-Phe-Arg-Trp-Gaba-Cys)-NH2]"
value_reported = 9.00

[[record]]
binder = "Ac-[Nle]C[dL]H[dF]RWC-NH2 (disulfide 2-8; SMILES CCCC[C@H](NC(C)=O)C(=O)N[C@H]1CSSC[C@@H](C(N)=O)NC(=O)[C@H](Cc2c[nH]c3ccccc23)NC(=O)[C@H](CCCNC(=N)N)NC(=O)[C@@H](Cc2ccccc2)NC(=O)[C@H](Cc2c[nH]cn2)NC(=O)[C@@H](CC(C)C)NC1=O) [Ac-Nle-c(Cys-D-Leu-His-D-Phe-Arg-Trp-Cys)-NH2]"
value_reported = 8.38

[[record]]
binder = "Ac-[Nle][Pen]H[dF]RW[GABA][Pen]-NH2 (disulfide 2-8) [Ac-Nle-c(Pen-His-D-Phe-Arg-Trp-Gaba-Pen)-NH2]"
value_reported = 8.45


Please give the measured pKi for this binder: Ac-[Nle]C[dA]H[dF]RWAC-NH2 (disulfide 2-9) [Ac-Nle-c(Cys-D-Ala-His-D-Phe-Arg-Trp-Ala-Cys)-NH2]
7.66

Continue with Ac-[Nle]C[dA]H[dF]RW[Ava]C-NH2 (disulfide 2-9; SMILES CCCC[C@H](NC(C)=O)C(=O)N[C@H]1CSSC[C@@H](C(N)=O)NC(=O)CCCCNC(=O)[C@H](Cc2c[nH]c3ccccc23)NC(=O)[C@H](CCCNC(=N)N)NC(=O)[C@@H](Cc2ccccc2)NC(=O)[C@H](Cc2c[nH]cn2)NC(=O)[C@@H](C)NC1=O) [Ac-Nle-c(Cys-D-Ala-His-D-Phe-Arg-Trp-Apn-Cys)-NH2]
8.12
